# study system: T1, Epstein-Barr virus BHRF1 a.a. 1-161 with C-terminal avi-6his tag (Epstein-Barr virus)
# T1 construct: also called EBV BHRF1; BHRF1-biotin
# T1 chain: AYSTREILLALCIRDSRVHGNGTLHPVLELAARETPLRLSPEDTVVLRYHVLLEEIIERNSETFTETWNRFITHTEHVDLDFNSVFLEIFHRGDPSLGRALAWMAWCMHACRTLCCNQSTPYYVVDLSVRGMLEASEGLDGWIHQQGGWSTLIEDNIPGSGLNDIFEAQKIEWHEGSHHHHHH
# protocol text: yeast display library, FACS sort at 400 nM BHRF1, deep sequencing
Log2 enrichment ratio reference
Record the value in log2, omitting the unit from your answer.

Index 11 (designed binder) GNILDEAKDEMREEMEKLWKKFKDEVEEERKEAEREEKHFQERAELTKRWIARALMAIGDMFNRFREAKEKLEKRRELGLISEEDARKALLLLEEFMRRMAEFAKKLGDDLMRDAEKG = -1.55

Next item in the queue.
Input line: Any idea what Log2 enrichment ratio was measured for Index 56 (designed binder) GESAEKWRERLREKAGYWAEYAFWLADEAEKRAKIYSASSERRAEWTMRWIAIALAAIGDVFNEGQKADEKFDELKKQNKRSDDDLDDYKDKFKEEVEKALRKLLKAGDKIADLAEQG ?
Output line: -3.81
